# System: Cynomolgus TG2
# measurement notes: Biacore (SPR) affinity, cynomolgus TG2
# Assay type: binding, cynomolgus monkey
# measurement parameters: +Ca^2+ (1 mM CaCl2 running buffer; includes rows without a Ca mark)
readout: koff (s⁻¹)
Numeric only. Scale: s⁻¹

**Query** # query: koff of entry hAB004: humanised AB1 antibody; heavy chain version RHA with light chain version RKE (antibody, V domains shown) VH: EVQLLESGGGLVQPGGSLRLSCAASGFTFSSSAMSWVRQAPGKGLEWVSTISVGGGKTYYPDSVKGRFTISRDNSKNTLYLQMNSLRAEDTAVYYCAKLISLYWGQGTLVTVSS VL: EIVLTQSPSSLSASVGDRVTITCKASQDINSYLTWYQQKPGKAPKLLIYRTNRLFDGVPSRFSGSGSGTDFFFTISSLQPEDFGTYYCLQYDDFPYTFGGGTKLEIK
**Result** 1.8e-05
